System: Streptococcus sp.
Test: In vitro antibacterial evaluation: minimum inhibitory concentration (MIC), broth dilution method
Format: cell-based
Details: strain GC 1894
For each entry below, report its MIC Streptococcus pneumoniae (GC 1894) value.
Answer in µg/mL, number only, no unit symbol.

Requested field: MIC Streptococcus pneumoniae (GC 1894). Item: CC(c1ccccc1)C1NC(=O)CNC(=O)C(CO)NC(=O)C(C(O)C2CN(Cc3ccccc3)C(=N)N2C2OC(CO)C(O)C(O)C2O)NC(=O)C(C(O)C2CNC(=N)N2)NC(=O)C(Cc2ccc(OC3OC(CO)C(OC4OC(CO)C(O)C(O)C4O)C(O)C3O)cc2)NC1=O (stereo not shown) [Example 59]
64

Try this compound too: CC(c1ccccc1)C1NC(=O)CNC(=O)C(CO)NC(=O)C(C(O)C2CN(Cc3ccccc3)C(=NCc3ccccc3)N2C2OC(CO)C(O)C(O)C2O)NC(=O)C(C(O)C2CN(Cc3ccccc3)C(=NCc3ccccc3)N2Cc2ccccc2)NC(=O)C(Cc2ccc(OC3OC(CO)C(OC4OC5COC6(OC5C(O)C4O)C4CC5CC(C4)CC6C5)C(O)C3O)cc2)NC1=O (stereo not shown) [Example 79]
8

Try this compound too: CC(c1ccccc1)C1NC(=O)CNC(=O)C(CO)NC(=O)C(C(O)C2CNC(=N)N2C2OC(CO)C(O)C(O)C2O)NC(=O)C(C(O)C2CNC(=NC(=O)C(C)(C)C)N2)NC(=O)C(Cc2ccc(OC3OC(CO)C(OC4OC(CO)C(O)C(O)C4O)C(O)C3O)cc2)NC1=O (stereo not shown) [Example 155]
0.12
